These entries and their values trace back to ChEMBL document CHEMBL1143281.

TARGET DESC: Adrenergic receptor alpha-2 (Rattus norvegicus, UniProt P22086+P19328+P22909)
Sequence (P22086 whole entry): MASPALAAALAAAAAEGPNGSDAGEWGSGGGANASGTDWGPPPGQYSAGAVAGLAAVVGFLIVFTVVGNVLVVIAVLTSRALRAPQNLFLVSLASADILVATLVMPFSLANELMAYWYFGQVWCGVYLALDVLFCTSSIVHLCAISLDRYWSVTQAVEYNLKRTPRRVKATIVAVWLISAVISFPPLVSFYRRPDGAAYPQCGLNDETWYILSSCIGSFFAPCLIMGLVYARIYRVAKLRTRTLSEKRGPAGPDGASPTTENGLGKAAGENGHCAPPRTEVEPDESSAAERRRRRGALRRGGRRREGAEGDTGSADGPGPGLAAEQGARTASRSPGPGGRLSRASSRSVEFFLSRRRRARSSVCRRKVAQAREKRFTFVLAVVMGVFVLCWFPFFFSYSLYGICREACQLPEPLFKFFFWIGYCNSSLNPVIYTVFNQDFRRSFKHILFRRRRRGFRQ
Sequence (P19328 whole entry): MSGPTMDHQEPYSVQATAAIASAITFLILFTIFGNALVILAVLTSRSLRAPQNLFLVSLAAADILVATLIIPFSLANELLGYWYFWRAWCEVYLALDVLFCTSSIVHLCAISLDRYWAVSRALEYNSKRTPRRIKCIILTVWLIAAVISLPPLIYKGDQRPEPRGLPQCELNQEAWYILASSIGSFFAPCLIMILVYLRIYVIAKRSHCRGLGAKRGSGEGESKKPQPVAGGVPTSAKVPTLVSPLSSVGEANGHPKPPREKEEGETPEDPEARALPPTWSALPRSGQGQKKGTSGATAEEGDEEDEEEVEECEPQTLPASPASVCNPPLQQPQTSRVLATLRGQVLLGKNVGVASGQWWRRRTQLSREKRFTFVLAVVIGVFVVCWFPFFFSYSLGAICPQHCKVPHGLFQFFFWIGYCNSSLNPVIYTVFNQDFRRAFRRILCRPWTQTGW
Sequence (P22909 whole entry): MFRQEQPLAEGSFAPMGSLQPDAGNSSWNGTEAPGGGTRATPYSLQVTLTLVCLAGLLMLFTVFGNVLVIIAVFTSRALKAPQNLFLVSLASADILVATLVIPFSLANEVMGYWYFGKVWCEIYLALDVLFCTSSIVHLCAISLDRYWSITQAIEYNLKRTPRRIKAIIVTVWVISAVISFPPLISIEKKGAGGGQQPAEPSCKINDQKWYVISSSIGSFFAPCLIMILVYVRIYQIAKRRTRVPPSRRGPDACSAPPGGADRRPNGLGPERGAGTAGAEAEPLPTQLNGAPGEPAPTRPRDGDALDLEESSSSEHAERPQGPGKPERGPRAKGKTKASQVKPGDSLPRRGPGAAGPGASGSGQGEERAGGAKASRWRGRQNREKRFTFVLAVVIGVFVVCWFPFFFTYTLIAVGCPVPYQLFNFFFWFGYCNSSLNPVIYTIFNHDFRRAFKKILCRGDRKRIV
TEST NAME: Displacement of [3H]RX821002 from alpha2 adrenoceptor in Sprague-Dawley rat kidney by liquid scintillation counting
Format: tissue-based
MEASUREMENT LABEL: Ki

# MOLECULAR STRING, TARGET DESC, MEASUREMENT LABEL, MEASURED VALUE
records = [
    ("CC(=O)NCC[C@H]1CN=CN1.CC(=O)O", "Adrenergic receptor alpha-2 (Rattus norvegicus, UniProt P22086+P19328+P22909)", "Ki", "> 100 µM"),
]

Data request: Requested field: Ki. Item: Br.CC(=O)NCC[C@H]1CN=C(N)N1
Data returned: > 100 µM
